# Tested on: Plasmodium falciparum NF54 stage V gametocytes
# experiment_description: viability index relative to DMSO control (fraction); higher = less gametocyte killing
# study_conditions: 2.5 µM, library set: Broad Institute DOS, incubation time: 72 h
In all, about 9,900 compounds were measured (“viability index relative to DMSO control”: median about 1, lowest 2% from about 0.85 on). This is one part of a sample in which the lowest values are shown more often than they occur.
Overview of recorded viability index for various compounds
measure_name: viability index

>  <smiles_text>
COc1cccc(S(=O)(=O)N(C)C[C@H]2OCc3ccccc3-c3c(n(C)c4ccccc34)C(=O)N([C@H](C)CO)C[C@@H]2C)c1

>  <target_entity>
Plasmodium falciparum NF54 stage V gametocytes

>  <measure_name>
viability index

>  <value>
0.975

$$$$
>  <smiles_text>
O=C(C[C@@H]1CC[C@@H]2[C@H](COC[C@@H](O)CN2C(=O)c2ccncc2)O1)NCc1cc(F)cc(F)c1

>  <target_entity>
Plasmodium falciparum NF54 stage V gametocytes

>  <measure_name>
viability index

>  <value>
1.05

$$$$
>  <smiles_text>
C[C@H]1CN([C@@H](C)CO)C(=O)CCCn2nncc2CO[C@@H]1CN(C)Cc1ccccc1C(=O)O

>  <target_entity>
Plasmodium falciparum NF54 stage V gametocytes

>  <measure_name>
viability index

>  <value>
1.04

$$$$
>  <smiles_text>
N#Cc1cccc(-c2ccc([C@@H]3[C@@H]4CN(C(=O)c5ccc6c(c5)OCO6)C[C@H]3N4)cc2)c1

>  <target_entity>
Plasmodium falciparum NF54 stage V gametocytes

>  <measure_name>
viability index

>  <value>
0.896

$$$$
>  <smiles_text>
COc1cccc(S(=O)(=O)N(C)C[C@H]2OCc3ccccc3-c3c(n(C)c4ccccc34)C(=O)N([C@@H](C)CO)C[C@H]2C)c1

>  <target_entity>
Plasmodium falciparum NF54 stage V gametocytes

>  <measure_name>
viability index

>  <value>
0.833

$$$$
>  <smiles_text>
C[C@H]1CN([C@@H](C)CO)C(=O)c2cccc(NC(=O)C3CCOCC3)c2O[C@@H]1CN(C)C(=O)Nc1cccc2ccccc12

>  <target_entity>
Plasmodium falciparum NF54 stage V gametocytes

>  <measure_name>
viability index

>  <value>
1.03

$$$$
>  <smiles_text>
O=C(C1CCC1)N1C[C@@H]2N[C@H](C1)[C@@H]2c1ccc(-c2cncnc2)cc1

>  <target_entity>
Plasmodium falciparum NF54 stage V gametocytes

>  <measure_name>
viability index

>  <value>
1.12

$$$$
>  <smiles_text>
O=C(Nc1ccc(C(F)(F)F)cc1)N[C@@H]1C=C[C@@H](CC(=O)N2CCCCC2)O[C@H]1CO

>  <target_entity>
Plasmodium falciparum NF54 stage V gametocytes

>  <measure_name>
viability index

>  <value>
1.11

$$$$
>  <smiles_text>
N#Cc1ccc(-c2ccc([C@@H]3[C@@H]4CN(C(=O)Nc5ccc6c(c5)OCO6)C[C@H]3N4)cc2)cc1

>  <target_entity>
Plasmodium falciparum NF54 stage V gametocytes

>  <measure_name>
viability index

>  <value>
0.56

$$$$
>  <smiles_text>
N#Cc1ccc(-c2ccc([C@@H]3[C@@H]4CN(C(=O)c5cccnc5)C[C@H]3N4)cc2)cc1

>  <target_entity>
Plasmodium falciparum NF54 stage V gametocytes

>  <measure_name>
viability index

>  <value>
0.81

$$$$
>  <smiles_text>
O=C(C1CCC1)N1C[C@@H]2N[C@H](C1)[C@H]2c1ccc(/C=C/c2ccccc2)cc1

>  <target_entity>
Plasmodium falciparum NF54 stage V gametocytes

>  <measure_name>
viability index

>  <value>
1.02

$$$$
>  <smiles_text>
COC(=O)c1ccc(CN2CC(=O)N3[C@H](CO)[C@@H](c4ccc(-c5cccnc5)cc4)[C@H]3C2)cc1

>  <target_entity>
Plasmodium falciparum NF54 stage V gametocytes

>  <measure_name>
viability index

>  <value>
0.986

$$$$
>  <smiles_text>
O=C(C[C@@H]1CC[C@H]2NC[C@H](O)COC[C@@H]2O1)Nc1nccs1

>  <target_entity>
Plasmodium falciparum NF54 stage V gametocytes

>  <measure_name>
viability index

>  <value>
1.04

$$$$
>  <smiles_text>
C/C=C/c1ccc([C@H]2[C@@H]3CN(C(=O)Nc4ccccc4F)C[C@H]2N3)cc1

>  <target_entity>
Plasmodium falciparum NF54 stage V gametocytes

>  <measure_name>
viability index

>  <value>
1.06

$$$$
>  <smiles_text>
O=C(c1ccc2c(c1)OCO2)N1C[C@@H]2N[C@H](C1)[C@@H]2c1ccc(-c2cncnc2)cc1

>  <target_entity>
Plasmodium falciparum NF54 stage V gametocytes

>  <measure_name>
viability index

>  <value>
1.08

$$$$
>  <smiles_text>
CCCC(=O)N1CC[C@@]2(CC1)CN(Cc1ccc(Cl)cc1)[C@H](CO)c1[nH]c3cc(OC)ccc3c21

>  <target_entity>
Plasmodium falciparum NF54 stage V gametocytes

>  <measure_name>
viability index

>  <value>
0.873

$$$$
>  <smiles_text>
C[C@@H]1CCn2cc(nn2)COC[C@H](C)NC1=O

>  <target_entity>
Plasmodium falciparum NF54 stage V gametocytes

>  <measure_name>
viability index

>  <value>
1.06

$$$$
>  <smiles_text>
Cc1ccc(S(=O)(=O)N(C)C[C@@H]2Oc3c(NS(C)(=O)=O)cccc3C(=O)N([C@H](C)CO)C[C@@H]2C)cc1

>  <target_entity>
Plasmodium falciparum NF54 stage V gametocytes

>  <measure_name>
viability index

>  <value>
0.939

$$$$
>  <smiles_text>
NCC[C@@H]1CC[C@H](NS(=O)(=O)c2ccc(Cl)cc2)[C@H](CO)O1

>  <target_entity>
Plasmodium falciparum NF54 stage V gametocytes

>  <measure_name>
viability index

>  <value>
1.08

$$$$
>  <smiles_text>
COc1ccc2c3c([nH]c2c1)[C@@H](CO)N(Cc1ccccc1)C[C@]31CCN(Cc2cncnc2)CC1

>  <target_entity>
Plasmodium falciparum NF54 stage V gametocytes

>  <measure_name>
viability index

>  <value>
0.849

$$$$
>  <smiles_text>
O=C(Nc1ccccc1)N1CC(=O)N2[C@H](CO)[C@H](c3ccc(C#CC4CCCCC4)cc3)[C@@H]2C1

>  <target_entity>
Plasmodium falciparum NF54 stage V gametocytes

>  <measure_name>
viability index

>  <value>
0.96

$$$$
>  <smiles_text>
CC(C)C[C@H]1COCc2cn(nn2)CC[C@@H](Cc2ccc(Cl)cc2)C(=O)N1

>  <target_entity>
Plasmodium falciparum NF54 stage V gametocytes

>  <measure_name>
viability index

>  <value>
0.955

$$$$
>  <smiles_text>
CCc1cnc(N2[C@H](C#N)[C@H](c3ccc(C#Cc4ccccc4F)cc3)[C@H]2CO)s1

>  <target_entity>
Plasmodium falciparum NF54 stage V gametocytes

>  <measure_name>
viability index

>  <value>
0.887

$$$$
>  <smiles_text>
C/C=C/c1ccc([C@H]2[C@@H](CO)N3CCCCN(S(=O)(=O)c4ccc(OC)cc4)C[C@@H]23)cc1

>  <target_entity>
Plasmodium falciparum NF54 stage V gametocytes

>  <measure_name>
viability index

>  <value>
0.972

$$$$
>  <smiles_text>
C[C@H](CO)N1C[C@H](C)[C@@H](CN(C)Cc2cccc(C(=O)Nc3ccccc3N)c2)OCc2ccccc2-c2c(n(C)c3ccccc23)C1=O

>  <target_entity>
Plasmodium falciparum NF54 stage V gametocytes

>  <measure_name>
viability index

>  <value>
0.887

$$$$
>  <smiles_text>
CN(C)C(=O)c1ccc(-c2ccc([C@@H]3[C@@H]4CN(Cc5ccc6c(c5)OCO6)C[C@H]3N4)cc2)cc1

>  <target_entity>
Plasmodium falciparum NF54 stage V gametocytes

>  <measure_name>
viability index

>  <value>
1.05

$$$$
>  <smiles_text>
COc1ccc2c3c([nH]c2c1)[C@H](CO)N(Cc1ccc(Cl)cc1)C[C@]31CCN(Cc2nccs2)CC1

>  <target_entity>
Plasmodium falciparum NF54 stage V gametocytes

>  <measure_name>
viability index

>  <value>
0.884

$$$$
>  <smiles_text>
COC(=O)C[C@H]1CC[C@@H]2[C@@H](COc3ccc(NC(=O)Nc4c(C)noc4C)cc3C(=O)N2C)O1

>  <target_entity>
Plasmodium falciparum NF54 stage V gametocytes

>  <measure_name>
viability index

>  <value>
0.983

$$$$
>  <smiles_text>
COc1ccc2c3c([nH]c2c1)[C@@H](CO)N(Cc1nccs1)C[C@]31CCN(Cc2cccnc2)CC1

>  <target_entity>
Plasmodium falciparum NF54 stage V gametocytes

>  <measure_name>
viability index

>  <value>
0.98

$$$$
>  <smiles_text>
COc1ccc2c3c([nH]c2c1)[C@@H](CO)N(Cc1nccs1)C[C@]31CN(Cc2ccncc2)C1

>  <target_entity>
Plasmodium falciparum NF54 stage V gametocytes

>  <measure_name>
viability index

>  <value>
1.02

$$$$
>  <smiles_text>
N#Cc1cccc(-c2ccc([C@H]3[C@@H]4CN(C(=O)c5ccc6c(c5)OCO6)C[C@H]3N4)cc2)c1

>  <target_entity>
Plasmodium falciparum NF54 stage V gametocytes

>  <measure_name>
viability index

>  <value>
1.09

$$$$
>  <smiles_text>
COc1ccc2c3c([nH]c2c1)[C@@H](CO)N(Cc1ccc(Cl)cc1)C[C@]31CCN(Cc2nccs2)CC1

>  <target_entity>
Plasmodium falciparum NF54 stage V gametocytes

>  <measure_name>
viability index

>  <value>
0.814

$$$$
>  <smiles_text>
Cc1noc(C)c1NC(=O)N(C)C[C@H]1Oc2ccc(NC(=O)Cc3cn(C)c4ccccc34)cc2CC(=O)N([C@H](C)CO)C[C@@H]1C

>  <target_entity>
Plasmodium falciparum NF54 stage V gametocytes

>  <measure_name>
viability index

>  <value>
1.04

$$$$
